All figures here come from patent US20040024000A1.

Some compounds, each annotated with its measured Vd/F.
# MEASUREMENT NOTES: Pharmacokinetics in mice after single oral dose
# Type: in vivo
# CONDITION NOTES: mouse, in vivo, single oral dose of 5 mg/kg, read-out: Vz/F
Numbers only; they are read as L/kg.

Can you look up the measured Vd/F of CC(C)C[C@H](NC(=O)OCc1ccccc1)C(=O)NC1=CNC2(CCCC2)NC1=O for me?
4.49

What value of measured Vd/F is listed for CC(C)C[C@H](NC(=O)c1cc2ccccc2s1)C(=O)NC1=CNC(c2ccccc2F)NC1=O (some centres unmarked) ?
4.49

###

Please consider the recorded IC50 for r rat cathepsin B (Rattus norvegicus) in what follows.
Express it in µM; write the number only.

Example molecules with recorded IC50:
>  <MOLECULE>
CC(C)C[C@H](NC(=O)c1cc2ccccc2s1)C(=O)NC1=CNC(c2ccccc2F)NC1=O (stereo partly shown) [Example 21]

>  <SYSTEM UNDER TEST>
r rat cathepsin B (Rattus norvegicus)
Sequence (P00787 80-333): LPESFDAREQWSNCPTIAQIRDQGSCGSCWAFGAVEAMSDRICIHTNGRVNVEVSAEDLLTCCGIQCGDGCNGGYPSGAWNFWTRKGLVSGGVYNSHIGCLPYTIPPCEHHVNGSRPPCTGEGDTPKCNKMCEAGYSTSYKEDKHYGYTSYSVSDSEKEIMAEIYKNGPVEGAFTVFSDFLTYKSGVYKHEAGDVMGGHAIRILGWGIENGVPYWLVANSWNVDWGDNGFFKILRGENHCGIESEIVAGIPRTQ

>  <UNIT STRING>
µM

>  <VALUE REPORTED>
0.42

$$$$
>  <MOLECULE>
CC(C)C[C@H](NC(=O)OCc1ccccc1)C(=O)NC1=CNC(c2ccccc2F)NC1=O (stereo partly shown) [Example 2]

>  <SYSTEM UNDER TEST>
r rat cathepsin B (Rattus norvegicus)

>  <UNIT STRING>
µM

>  <VALUE REPORTED>
8.38

$$$$
>  <MOLECULE>
CC(C)C[C@H](NC(=O)OCc1ccccc1)C(=O)NC1=CNC2(CCCC2)NC1=O [Example 6]

>  <SYSTEM UNDER TEST>
r rat cathepsin B (Rattus norvegicus)

>  <UNIT STRING>
µM

>  <VALUE REPORTED>
3.16

$$$$

Moving on to the next molecule.
IC50 of CC(C)C[C@H](NC(=O)OCc1ccccc1)C(=O)NC1=CNC(CC(C)(C)C)NC1=O (stereo partly shown) [Example 10] on r rat cathepsin B (Rattus norvegicus)?
9.53
